System: LXRa homodimer (NR concentration 270 nM)
Test Name: PBM binding z-score (relative to random genomic background probes); higher = stronger binding; sequences stand for … in GC…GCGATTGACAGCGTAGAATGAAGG
Collected PBM binding z-score values appear next to each entry.
Measurement Type: PBM binding z-score

[[record]]
primary_sequence = "CGTCCAAGGTCAGCAGGTCATTGAAAGCGACGTG"
measurement_type = "PBM binding z-score"
result = 1.51

[[record]]
primary_sequence = "GCTAGCAGGCCATTTGGGTCACGCAATGACGGGC"
measurement_type = "PBM binding z-score"
result = -0.416

[[record]]
primary_sequence = "AGAATGAGGATACCAAAGATCAGGGAAACGCTTG"
measurement_type = "PBM binding z-score"
result = -0.437

[[record]]
primary_sequence = "AGATCGAGGGCACGCTGAGTTGATAGCAGAGTAG"
measurement_type = "PBM binding z-score"
result = -0.704

[[record]]
primary_sequence = "AGAAGGAGGGCACGCTGAGTTGATAGCAGAGTAG"
measurement_type = "PBM binding z-score"
result = -0.359

[[record]]
primary_sequence = "CGTCAAAGTTCAACTAAGGGAACGTAAAGCACGC"
measurement_type = "PBM binding z-score"
result = 3.68


###

Quick list: PBM binding z-score per entry.
System: PPARg:RXRa 90nM:30nM, anti-RXR (NR concentration 90 nM, RXRa partner concentration 30 nM)
Test Name: PBM binding z-score (relative to random genomic background probes); higher = stronger binding; sequences stand for … in GC…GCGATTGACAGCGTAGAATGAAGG
Measurement Type: PBM binding z-score

[[record]]
primary_sequence = "GCTCGGAGGACAAGGTCAGTGCTTTGTCCGTAGA"
numeric_readout = 0.326

[[record]]
primary_sequence = "TCATATAGGTAAATGCCAGGTGAAAGTCCGATCT"
numeric_readout = 3.1

[[record]]
primary_sequence = "TCTATTAGTTGAAGGGCATCCGACGAGTCCGTTT"
numeric_readout = 2.78

[[record]]
primary_sequence = "CCTACTGGGCCAAGATCATTGATCAGTCAAAGCA"
numeric_readout = 0.221

[[record]]
primary_sequence = "GCTATGAGTTGAAAGGGCAACCGAATGATTCTCG"
numeric_readout = 3.23

[[record]]
primary_sequence = "CAAACTACGTCAAGGTCAAAGTCGGTTTGTGCCA"
numeric_readout = 1.7

[[record]]
primary_sequence = "CTCGAAAGGTCGGTTGAGGTGAGTATCCGGATAA"
numeric_readout = 0.975

[[record]]
primary_sequence = "CGAACTAGGTCATTGACAGGACCGTGAATAGTAA"
numeric_readout = 5.79

[[record]]
primary_sequence = "CGTCAAAATTCAAGGTAACGTAACAGAAAGCAGC"
numeric_readout = 0.028

[[record]]
primary_sequence = "AGAATGAGGTTATACGTAGATCAAGGAAGAAAGT"
numeric_readout = 1.62

[[record]]
primary_sequence = "TCTGCTAGGTCAACGATGGTCAGCTATTCTGCTA"
numeric_readout = 2.29

[[record]]
primary_sequence = "GGAACGAGGGCAAAGTTGATTGCATCTGTCGACG"
numeric_readout = 6.92

[[record]]
primary_sequence = "ATATGTAGGTTATCGGGTAATTCAGTTTGCGCAT"
numeric_readout = 4.5

[[record]]
primary_sequence = "CGAACGAGGGCATGAGTTTATAGCAAATGCCGAT"
numeric_readout = 0.962

[[record]]
primary_sequence = "TCATATAGGTAAATGCTAGGAGAAAGTCCGATCT"
numeric_readout = 3.15

[[record]]
primary_sequence = "TCTAGTAGGTTAGGGGCATTCAGAATGGCGTCGA"
numeric_readout = 3.55

[[record]]
primary_sequence = "TCTATTAGTTGATGAGGGCAACCGAAACAGCGGA"
numeric_readout = 2.83

